assay: Pharmacokinetic test, oral, SD rats; type: in vivo; conditions: oral 10 mg/kg, plasma
Classify as follows. Reported Cl greater than or equal to 60 mL/min/kg: YES. Reported Cl below: NO.

Prompt: For this compound, is measured Cl 60 mL/min/kg or higher? COc1cccc(Oc2ccc(-c3nc(C4CCC(CO)OC4)n4ccnc(N)c34)cc2)c1F (stereo not drawn)
Response: YES

Prompt: For this compound, is measured Cl 60 mL/min/kg or higher? N#Cc1ccnc(NC(=O)c2ccc(-c3nc(C4CCC(CO)OC4)n4ccnc(N)c34)cc2)c1 (stereo not drawn)
Response: NO

Prompt: For this compound, is measured Cl 60 mL/min/kg or higher? COc1ccccc1C(=O)NCc1ccc(-c2nn(C3CCC(CO)OC3)c3ncnc(N)c23)cc1 (single isomer, unassigned)
Response: YES

Prompt: For this compound, is measured Cl 60 mL/min/kg or higher? Nc1nccn2c(C34CCC(CO)(CC3)OC4)nc(-c3ccc(C(=O)Nc4cc(C(F)(F)F)ccn4)cc3)c12
Response: NO

Prompt: For this compound, is measured Cl 60 mL/min/kg or higher? Nc1nccn2c(C34CCC(CO)(CC3)OC4)nc(-c3ccc(C(F)(F)c4ccccc4)cc3)c12
Response: NO

Prompt: For this compound, is measured Cl 60 mL/min/kg or higher? Nc1nccn2c(C34CCC(CO)(CC3)OC4)nc(-c3ccc(C(F)(F)c4cccc(Cl)c4F)cc3)c12
Response: YES

Prompt: For this compound, is measured Cl 60 mL/min/kg or higher? Nc1nccn2c([C@@H]3CC[C@H](CO)OC3)nc(-c3ccc(C(=O)Nc4ccccn4)cc3)c12 (single isomer, unassigned) [Compound 2-A-P1]
Response: NO

Prompt: For this compound, is measured Cl 60 mL/min/kg or higher? Nc1nccn2c(C34CCC(CO)(CC3)OC4)nc(-c3ccc(C(=O)Nc4ccccn4)cc3)c12
Response: NO

Prompt: For this compound, is measured Cl 60 mL/min/kg or higher? Cc1cc(Nc2ncnc3ccc(NC4=NC(C)(C)CO4)cc23)ccc1Oc1ccn2ncnc2c1 [Tucatinib, reference compound]
Response: YES

Prompt: For this compound, is measured Cl 60 mL/min/kg or higher? Nc1nccn2c(C3CCC(CO)OC3)nc(-c3ccc(Cc4ccccc4)cc3)c12 (stereo not drawn)
Response: YES

Prompt: For this compound, is measured Cl 60 mL/min/kg or higher? Nc1nccn2c(C3CCC(CO)OC3)nc(-c3ccc(C(F)(F)c4ccccc4)cc3)c12 (stereo not drawn)
Response: NO

Prompt: For this compound, is measured Cl 60 mL/min/kg or higher? COc1cccc(Oc2ccc(-c3nc(C4CCC(CO)OC4)n4ccnc(N)c34)cc2)c1 (stereo not drawn)
Response: NO

Prompt: For this compound, is measured Cl 60 mL/min/kg or higher? Nc1nccn2c(C3CCC(CO)OC3)nc(-c3ccc(C(=O)Nc4cc(C(F)(F)F)ccn4)cc3)c12 (single isomer, unassigned) [Compound 109-P1]
Response: NO

Prompt: For this compound, is measured Cl 60 mL/min/kg or higher? COc1cccc(Oc2ccc(-c3nc(C4CCC(CO)OC4)n4ccnc(N)c34)cc2)c1C#N (single isomer, unassigned) [Compound 89-P1]
Response: NO

Prompt: For this compound, is measured Cl 60 mL/min/kg or higher? COc1cccc(Oc2ccc(-c3nc(C4CCC(CO)OC4)n4ccnc(N)c34)cc2)c1C(F)(F)F (stereo not drawn)
Response: YES

Prompt: For this compound, is measured Cl 60 mL/min/kg or higher? O=C(c1ccc(Oc2ccccc2)cc1Cl)c1c[nH]c2ncnc(N[C@@H]3CC[C@@H](CO)OC3)c12 [ARQ-531, reference compound]
Response: NO

Prompt: For this compound, is measured Cl 60 mL/min/kg or higher? CC#CC(=O)N1CC[C@@H](n2c(=O)n(-c3ccc(Oc4ccccc4)cc3)c3c(N)ncnc32)C1 [Tirabrutinib, reference compound]
Response: YES

Prompt: For this compound, is measured Cl 60 mL/min/kg or higher? COc1cccc(Oc2ccc(-c3nc(C45CCC(CO)(CC4)OC5)n4ccnc(N)c34)cc2)c1C#N
Response: YES

====

pIC50: −log10 of the molar value.
I'd be grateful if you could share measured pIC50 for these entries.

Prompt: Hi! What's the reported pIC50 for Nc1nccn2c(C34COC(CO)(C3)C4)nc(-c3ccc(C(=O)Nc4cc(C(F)(F)F)ccn4)cc3)c12 on BTK wild-type kinase (Homo sapiens (Human), UniProt Q06187)?
Response: 7.70 to 8.30

Prompt: Hi! What's the reported pIC50 for Nc1nccn2c(C3CCC(CO)OC3)nc(-c3ccc(C(=O)Nc4ccc(F)cn4)cc3)c12 (stereo not drawn) on BTK wild-type kinase (Homo sapiens (Human), UniProt Q06187)?
Response: 7.00 to 7.70

Prompt: Hi! What's the reported pIC50 for COc1cccc(Oc2ccc(-c3nc(C4CCC(CO)OC4)n4ccnc(N)c34)cc2)c1 (stereo not drawn) on BTK wild-type kinase (Homo sapiens (Human), UniProt Q06187)?
Response: > 8.30

Prompt: Hi! What's the reported pIC50 for COc1cccc(C(F)(F)c2ccc(-c3nc(C45CCC(CO)(CC4)OC5)n4ccnc(N)c34)cc2)c1 on BTK wild-type kinase (Homo sapiens (Human), UniProt Q06187)?
Response: 7.00 to 7.70

Prompt: Hi! What's the reported pIC50 for Nc1cccc(NC(=O)c2ccc(-c3nc([C@@H]4CC[C@@H](CO)OC4)n4ccnc(N)c34)cc2)n1 (single isomer, unassigned) [Compound 2-A-P2] on BTK wild-type kinase (Homo sapiens (Human), UniProt Q06187)?
Response: 7.00 to 7.70

Prompt: Hi! What's the reported pIC50 for Nc1nccn2c(C3CCC(CO)OC3)nc(-c3ccc(Oc4ccc5c(c4F)OCO5)cc3)c12 (stereo not drawn) on BTK wild-type kinase (Homo sapiens (Human), UniProt Q06187)?
Response: 6.00 to 7.00

Prompt: Hi! What's the reported pIC50 for COc1cccc(Oc2ccc(-c3nc(C4CCC(CO)OC4)n4ccnc(N)c34)cc2)c1C#N (single isomer, unassigned) [Compound 89-P1] on BTK wild-type kinase (Homo sapiens (Human), UniProt Q06187)?
Response: > 8.30

Prompt: Hi! What's the reported pIC50 for COc1cccc(Oc2ccc(-c3nc(C4CCC(CO)OC4)n4c(C)cnc(N)c34)cc2)c1F (stereo not drawn) on BTK wild-type kinase (Homo sapiens (Human), UniProt Q06187)?
Response: 7.70 to 8.30

Prompt: Hi! What's the reported pIC50 for Cc1ccnc(NC(=O)c2ccc(-c3nc(C4CCC(CO)OC4)n4ccnc(N)c34)cc2)c1 (stereo not drawn) on BTK wild-type kinase (Homo sapiens (Human), UniProt Q06187)?
Response: 7.70 to 8.30

Prompt: Hi! What's the reported pIC50 for Nc1nccn2c(C3CCC(CO)OC3)nc(-c3ccc(C(O)c4ccccc4Cl)cc3)c12 (stereo not drawn) on BTK wild-type kinase (Homo sapiens (Human), UniProt Q06187)?
Response: 6.00 to 7.00

Prompt: Hi! What's the reported pIC50 for COc1cccc(Oc2ccc(-c3nc(C45CCC(CO)(CC4)OC5)n4ccnc(N)c34)cc2)c1F on BTK wild-type kinase (Homo sapiens (Human), UniProt Q06187)?
Response: > 8.30

Prompt: Hi! What's the reported pIC50 for COc1cccc(C(F)(F)c2ccc(-c3nc(C4CCC(CO)OC4)n4ccnc(N)c34)cc2)c1F (stereo not drawn) on BTK wild-type kinase (Homo sapiens (Human), UniProt Q06187)?
Response: 7.70 to 8.30

Prompt: Hi! What's the reported pIC50 for COc1cccc(Oc2ccc(-c3nc(C4CCC(CO)OC4)n4ccnc(N)c34)cc2)c1C#N (single isomer, unassigned) [Compound 89-P2] on BTK wild-type kinase (Homo sapiens (Human), UniProt Q06187)?
Response: > 8.30

Prompt: Hi! What's the reported pIC50 for Cc1cccc(Oc2ccc(-c3nc(C4CCC(CO)OC4)n4ccnc(N)c34)cc2)c1F (stereo not drawn) on BTK wild-type kinase (Homo sapiens (Human), UniProt Q06187)?
Response: > 8.30

Prompt: Hi! What's the reported pIC50 for NC(=O)c1ccccc1C(=O)c1ccc(-c2nc(C3CCC(CO)OC3)n3ccnc(N)c23)cc1 (stereo not drawn) on BTK wild-type kinase (Homo sapiens (Human), UniProt Q06187)?
Response: < 6.00

====

test system: BT474 cell proliferation; assay: In vitro cell proliferation inhibitory activity test (CTG), BT474; assay type: cell-based
measurement name: IC50
Field note: include the unit after the figure.

Prompt: Hi! What's the reported IC50 for Nc1nccn2c(C3CCC(CO)OC3)nc(-c3ccc(C(F)(F)c4ccccc4)cc3)c12 (single isomer, unassigned) [Compound 111-P2] on BT474 cell proliferation?
Response: 2.18 µM
